Biological target: T1, human CD8A-Fc (recombinant human CD8 alpha fused to Fc fragment of human IgG1) (human, UniProt P01732 22-182, limits assumed)
T1 construct: SPR ligand, captured by goat anti-human Fc; also called hCD8A-Fc; recombinant CD8 alpha; not shown: linker with flag (and polyhistidine) tag and Fc fragment of human IgG1; depends on which of the two constructs was used
T1 sequence (P01732 22-182 limits assumed): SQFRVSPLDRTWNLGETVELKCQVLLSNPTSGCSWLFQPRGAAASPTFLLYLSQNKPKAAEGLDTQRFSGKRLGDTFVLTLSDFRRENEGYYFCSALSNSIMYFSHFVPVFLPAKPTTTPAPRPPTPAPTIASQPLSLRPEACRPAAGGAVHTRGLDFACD
Test: SPR (ProteOn), captured hCD8A-Fc, heterogeneous ligand fit, higher affinity population
# key: entry, value: koff
Dear colleague, please return just the value in s⁻¹, with no unit written.

Query string: Returns the measured koff for the input binder. Input: P282ER9P1360_C8 (designed binder, FN3 domain (Centyrin); purified as His-tagged protein, tag not in the entry) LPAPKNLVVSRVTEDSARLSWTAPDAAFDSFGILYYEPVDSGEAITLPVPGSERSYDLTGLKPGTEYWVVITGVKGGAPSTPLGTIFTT
Result string: 4.71e-05

Query string: Returns the measured koff for the input binder. Input: P282DR9P1359_G7 (designed binder, FN3 domain (Centyrin); purified as His-tagged protein, tag not in the entry) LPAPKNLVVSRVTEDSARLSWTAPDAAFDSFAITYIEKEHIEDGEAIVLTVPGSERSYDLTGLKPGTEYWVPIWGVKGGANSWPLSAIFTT
Result string: 1.49e-05

Query string: Returns the measured koff for the input binder. Input: P282DR9P1359_C5 (designed binder, FN3 domain (Centyrin); purified as His-tagged protein, tag not in the entry) LPAPKNLVVSRVTEDSARLSWTAPDAAFDSFWITYPEWPDPGGEAIVLTVPGSERSYDLTGLKPGTEYFVVIYGVKGGEIYSPLSAIFTT
Result string: 5.79e-06

***
Query string: Returns the measured koff for the input binder. Input: P283AR9P1362_D6 (designed binder, FN3 domain (Centyrin); purified as His-tagged protein, tag not in the entry) LPAPKNLVVSRVTEDSARLSWAKRPGAFDSFLIQYQESEKVGEAIVLTVPGSERSYDLTGLKPGTEYTVSIYGVDVKYDIDSRPISSNPLSAIFTT
Result string: 1e-06

Query string: Returns the measured koff for the input binder. Input: P282DR9P1359_F5 (designed binder, FN3 domain (Centyrin); purified as His-tagged protein, tag not in the entry) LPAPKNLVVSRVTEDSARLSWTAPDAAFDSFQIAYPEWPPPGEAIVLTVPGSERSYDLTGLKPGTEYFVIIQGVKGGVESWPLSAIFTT
Result string: 1.42e-05

Query string: Returns the measured koff for the input binder. Input: P282DR9P1359_F7 (designed binder, FN3 domain (Centyrin); purified as His-tagged protein, tag not in the entry) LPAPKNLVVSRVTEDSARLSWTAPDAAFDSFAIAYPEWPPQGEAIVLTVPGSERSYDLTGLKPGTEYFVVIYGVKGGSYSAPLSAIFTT
Result string: 7.99e-05
